Please respond with reported %-inhibition of WNK2 for every item in the list.
Tgt: panel of more than 300 wild-type and mutant kinases (313 kinase panel) (Homo sapiens)
Assay Name: Kinase profiling in a biochemical assay panel (mobility shift assays and ELISA), %-inhibition at 1 μM; selectivity entropy
Assay Setup: kinase WNK2; compound at 1 μM
One number for each entry, in %.

COc1cc(Nc2c(C#N)cnc3cc(OCCCN4CCN(C)CC4)c(OC)cc23)c(Cl)cc1Cl    4
Cc1ccc(C(=O)Nc2ccc(CN3CCN(C)CC3)c(C(F)(F)F)c2)cc1C#Cc1cnc2cccnn12    13
Cc1ccc(Nc2nccc(N(C)c3ccc4c(C)n(C)nc4c3)n2)cc1S(N)(=O)=O    3
Cc1cn(-c2cc(NC(=O)c3ccc(C)c(Nc4nccc(-c5cccnc5)n4)c3)cc(C(F)(F)F)c2)cn1    -8
CO[C@H]1C[C@@H]2CC[C@@H](C)[C@@](O)(O2)C(=O)C(=O)N2CCCC[C@H]2C(=O)O[C@H]([C@H](C)C[C@@H]2CC[C@@H](OCCO)[C@H](OC)C2)CC(=O)[C@H](C)/C=C(\C)[C@@H](O)[C@@H](OC)C(=O)[C@H](C)C[C@H](C)/C=C/C=C/C=C/1C    -8

Please state %-inhibition of WNK2 for every compound in the list that follows.
1. CC(C)(C)c1nc(-c2cccc(NS(=O)(=O)c3c(F)cccc3F)c2F)c(-c2ccnc(N)n2)s1
2. N#CC[C@H](C1CCCC1)n1cc(-c2ncnc3[nH]ccc23)cn1
3. CS(=O)(=O)CCNCc1ccc(-c2ccc3ncnc(Nc4ccc(OCc5cccc(F)c5)c(Cl)c4)c3c2)o1
4. C[C@@H](Oc1cc(-c2cnn(C3CCNCC3)c2)cnc1N)c1c(Cl)ccc(F)c1Cl
5. CO[C@H]1C[C@@H]2CC[C@@H](C)[C@@](O)(O2)C(=O)C(=O)N2CCCC[C@H]2C(=O)O[C@H]([C@H](C)C[C@@H]2CC[C@@H](OC(=O)C(C)(CO)CO)[C@H](OC)C2)CC(=O)[C@H](C)/C=C(\C)[C@@H](O)[C@@H](OC)C(=O)[C@H](C)C[C@H](C)/C=C/C=C/C=C/1C

1: 0.686; 2: -4.57; 3: -5; 4: -4; 5: -7

# map each compound to its %-inhibition of WNK2
1. COc1cc2nccc(Oc3ccc(NC(=O)C4(C(=O)Nc5ccc(F)cc5)CC4)cc3)c2cc1OC [cabozantinib]
2. CNC(=O)c1cc(Oc2ccc(NC(=O)Nc3ccc(Cl)c(C(F)(F)F)c3)c(F)c2)ccn1

1: 6.43; 2: -4.43
